- protocol-text: in vitro
- measurement-setup: C57BL/6, mouse, plasma
Where a SMILES comes first, the peptide text is derived from it.
assay-metric: remaining at 24 h

Sample CSCC[C@@H]1NC(=O)[C@@H]2CCCN2C(=O)[C@H](CCSC)NC(=O)[C@H](CO)NC(=O)[C@H](Cc2c[nH]cn2)NC(=O)CNC(=O)[C@H](CO)NC(=O)[C@H](Cc2ccccc2)NC(=O)[C@H](CCCNC(=N)N)NC(=O)[C@H](CCC(=O)O)NC(=O)[C@H](Cc2ccccc2)NC(=O)[C@H](C(C)C)NC1=O [Cp1] (cyclo(HSMPMVFERFSG)) ; remaining at 24 h observed: > 95%

Data origin: paper PMC12586598
